Where do these numbers come from? They come from the supplement of paper PMC6555819.

Recorded measurements of PBM binding z-score, one per entry
- Tested on: LXRb:RXRa (NR concentration 270 nM, RXRa partner concentration 90 nM)
- protocol description: PBM binding z-score (relative to random genomic background probes); higher = stronger binding; sequences stand for … in GC…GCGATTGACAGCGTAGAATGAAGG
Lab note: jot down the number only; don't add units.

Example entries begin here.
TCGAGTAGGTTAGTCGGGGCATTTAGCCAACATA = 0.722
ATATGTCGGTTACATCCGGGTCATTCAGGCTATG = 1.92
TCTCGGAGGACACGTAGGTCAGAGCTTTCCAGAG = 0.22
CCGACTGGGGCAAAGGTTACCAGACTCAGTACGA = 1.99
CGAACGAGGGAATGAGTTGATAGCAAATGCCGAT = -1.01

PBM binding z-score of ATCTCTTGGTAACCAAGTTCAGTGAATGCCGAAC , assay on LXRb:RXRa (NR concentration 270 nM, RXRa partner concentration 90 nM), is 1.22

For the sequence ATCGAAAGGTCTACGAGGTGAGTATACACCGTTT , the measured PBM binding z-score on LXRb:RXRa (NR concentration 270 nM, RXRa partner concentration 90 nM) was 0.353

With LXRb:RXRa (NR concentration 270 nM, RXRa partner concentration 90 nM) as the test system, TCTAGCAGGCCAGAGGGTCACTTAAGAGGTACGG showed PBM binding z-score of 1.05

Case GCGACTGGGGCAAAGCAGGTCACCATAAGGTTGG , LXRb:RXRa (NR concentration 270 nM, RXRa partner concentration 90 nM), PBM binding z-score recorded as 1.53

So the reported PBM binding z-score for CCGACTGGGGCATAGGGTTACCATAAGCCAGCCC , on LXRb:RXRa (NR concentration 270 nM, RXRa partner concentration 90 nM), turned out to be 0.389

====

- Tested on: PPARg DBDmut:RXRa IVT, anti-PPARg (DBD mutation: PPARg1 K132A/R137A, NR concentration 270 nM, RXRa partner concentration 90 nM)
- protocol description: PBM binding z-score (relative to random genomic background probes); higher = stronger binding; sequences stand for … in GC…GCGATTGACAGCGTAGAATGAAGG
Measured PBM binding z-score, listed per entry for reference.
# print the numeric value only

Worked set:
TAGCCTAGTTCATGGGCCAGTATACCACGCGAAC = -0.299
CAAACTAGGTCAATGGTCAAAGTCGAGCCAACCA = 2.18
GCTATTAGTTGAAAGGGCAACCGCATGATTCTCG = -0.261
CGTCCAAGGTCAGAGAGGTCCGTGAATGCCGAGT = -0.282
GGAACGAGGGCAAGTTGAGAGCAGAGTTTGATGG = 0.19

Lookup result for GATACAGGGCCAAGGCCAGAGTACGCGTATTGAT ; measured PBM binding z-score: -0.899

Quick note, PBM binding z-score for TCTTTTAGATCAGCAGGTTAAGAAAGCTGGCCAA landed at 0.922

The recorded PBM binding z-score for CAAACTACGTCACGAAAGGTCAAAGTCGAATGAC is 1.4

====

- Tested on: PPARg:RXRa (NR concentration 180 nM, RXRa partner concentration 90 nM)
- protocol description: PBM binding z-score (relative to random genomic background probes); higher = stronger binding; sequences stand for … in GC…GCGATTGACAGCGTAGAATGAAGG
reported property: PBM binding z-score
Form rule: numeric answer, no unit written next to it.

Some solved cases for reference:
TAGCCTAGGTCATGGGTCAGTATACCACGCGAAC = 6.78
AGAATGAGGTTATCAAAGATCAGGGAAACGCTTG = 1.78
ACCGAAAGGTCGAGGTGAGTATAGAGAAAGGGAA = 3.28
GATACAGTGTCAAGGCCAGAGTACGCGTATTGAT = 0.593
CCTAGTTGGTCAGGAGGTCACACTCCGGATATGA = 3.28

PBM binding z-score value, target or system PPARg:RXRa (NR concentration 180 nM, RXRa partner concentration 90 nM), for ATACCAAGGTGATCCTGAGGTCGTTGATACTAAC : 0.744

Readout PBM binding z-score for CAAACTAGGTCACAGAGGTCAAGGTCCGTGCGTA , test system PPARg:RXRa (NR concentration 180 nM, RXRa partner concentration 90 nM), was 10.1

Hey, PPARg:RXRa (NR concentration 180 nM, RXRa partner concentration 90 nM) data for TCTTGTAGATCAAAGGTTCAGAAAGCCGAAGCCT : PBM binding z-score came out at 3.23

Entry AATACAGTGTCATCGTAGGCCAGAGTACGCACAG ; assay system PPARg:RXRa (NR concentration 180 nM, RXRa partner concentration 90 nM); PBM binding z-score recorded at 1.05

====

- System: LXRa homodimer (NR concentration 270 nM)
- protocol description: PBM binding z-score (relative to random genomic background probes); higher = stronger binding; sequences stand for … in GC…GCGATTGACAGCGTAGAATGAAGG
reported property: PBM binding z-score

TCAGATAGGTAAACAGGTGAAAGTCCGTAAGTTA = 0.121
CGAACTAGGTCAAGGACAGCGAATCTCCGCACGC = 0.194
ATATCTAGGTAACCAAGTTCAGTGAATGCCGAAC = 0.932

Item: CCTACTGGCCCAAGGTCATTGATCAGTCAAAGCA | PBM binding z-score: 2

For record CGTCCGAGGTCAGCAGGTCAGTGAAAGCGACGTG the listed PBM binding z-score is 0.517

The sequence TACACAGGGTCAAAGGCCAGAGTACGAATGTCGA showed PBM binding z-score equal to 1.96

Kindly note the recorded PBM binding z-score for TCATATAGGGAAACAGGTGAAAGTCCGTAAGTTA , which is 0.121

Notebook: TCTTGTAGATCAACAGGAGGTTAAGAAGGATCGA , PBM binding z-score read as 0.0858

The measured PBM binding z-score associated with ATCTCTAGTTAAAAGTTCAGTGAATCCCGAGGAT reads 1.82

====

- Test system: VDR:RXRa (NR concentration 270 nM, RXRa partner concentration 90 nM)
- protocol description: PBM binding z-score (relative to random genomic background probes); higher = stronger binding; sequences stand for … in GC…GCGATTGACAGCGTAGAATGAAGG
PBM binding z-score for assorted sequences
Give the value as a plain number.

Field: example entries. Status: answers known.
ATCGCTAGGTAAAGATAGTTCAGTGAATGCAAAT = 0.0952
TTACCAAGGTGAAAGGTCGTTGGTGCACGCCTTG = 3.5
CGAACGAGGGCATGAGTTGATAGGAAATGCCGAT = 1.13
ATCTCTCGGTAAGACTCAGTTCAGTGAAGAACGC = 0.848
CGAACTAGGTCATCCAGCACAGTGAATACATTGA = 2.34
TCATATAGGCAAAGGTGAAAGTCGAACGATATGA = 0.976
TCTTGTAGATCAAAGGTTAACAAAGCCGAAGCCT = 2.09
GCTTACGGGTCAAAGGTTATAGCGTGAATAGAAT = 5.55

Please look at the following sequence next.
According to the records, this sequence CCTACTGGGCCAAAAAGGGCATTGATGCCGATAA displays PBM binding z-score of 1.01

====

- Tested on: RARg homodimer (NR concentration 270 nM)
- protocol description: PBM binding z-score (relative to random genomic background probes); higher = stronger binding; sequences stand for … in GC…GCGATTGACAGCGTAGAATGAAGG
reported property: PBM binding z-score
Enter a number only.

// worked examples, PBM binding z-score included
CGTCAAAGTTCAATTAAGGTAACGTAAAGCACGC = 5.98
TCTTGTAGATCAATAGAGGTTAAGAAAGTGCGCT = 0.296
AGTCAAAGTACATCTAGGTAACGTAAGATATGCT = 0.944
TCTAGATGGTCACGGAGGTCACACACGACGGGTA = 4.89

Documented PBM binding z-score of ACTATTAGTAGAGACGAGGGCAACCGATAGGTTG : 0.804

PBM binding z-score reading for ATCCCTAGGTAAAAGTTCAGTGAATCCCGAGGAT : 1.73

Lab book: PBM binding z-score of CCGACTGGGGCATAAGGTTACCCTAAGCCAGCCC noted as 0.806

So, CAAACTAGGTCAAACGTCAAAGTCGAGCCAACCA ? Its PBM binding z-score was 4.53

Record summary for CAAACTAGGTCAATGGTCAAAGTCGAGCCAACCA : reported PBM binding z-score = 4.56

====

Each entry below carries its recorded PBM binding z-score.
- Tested on: THRa homodimer (NR concentration 90 nM)
- protocol description: PBM binding z-score (relative to random genomic background probes); higher = stronger binding; sequences stand for … in GC…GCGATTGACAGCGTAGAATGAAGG
Answer with a number only.

TAGCCTAGGTCAGATCGGGCCAATATACGCTATA = 0.165
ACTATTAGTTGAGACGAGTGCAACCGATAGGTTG = -0.775

# PBM binding z-score (sequence: GCGACTGGGGCAAAGCAGGTTACCAAAAGGTTGG ) is -0.199

response.value for ACTATAAGTTGACTTAGGGCAACCGATACGACGC (field: PBM binding z-score) = 0.322

Reported PBM binding z-score for CCTGCTATGTCAATGGTCAGCTAAAGCAGCTCGC was -0.637

Reported PBM binding z-score for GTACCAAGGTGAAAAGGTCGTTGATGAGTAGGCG was 0.7

Per the records, this sequence ( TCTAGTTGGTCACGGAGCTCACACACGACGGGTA ) has PBM binding z-score equal to -0.466

Summary for this sequence, CCGACTGGAGCATAAGGTTACCATAAGCCAGCCC : PBM binding z-score is 1.77

Documented PBM binding z-score of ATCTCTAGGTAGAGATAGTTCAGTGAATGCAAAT : -0.22

Form: sequence = ACTAGCAGGCCAAGGGTCACTCACGATTAGTCCG ; PBM binding z-score = 0.409

// field: PBM binding z-score; key: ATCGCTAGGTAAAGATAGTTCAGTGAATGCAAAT ; value = -0.407
